assay: Plasma protein binding in human; type: ADME, cell-free; details: read-out: PPB
Reported Property: fraction unbound

Ask: # query: fraction unbound of entry `C[C@@H](O)[C@H]1C(=O)N2C(C(=O)O)=C(S[C@H]3C[C@@H](C(=O)N4CC[C@H](NC(=O)CNC(=N)N)C4)N(C)C3)[C@H](C)[C@H]12`
Result: > 0.9
